system: mice; assay: Maximal electroshock (MES) model in mice, i.p.;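 also: Electroshock-induced convulsion model serving to demonstrate antiepileptic efficacy against generalized and partial seizures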; format: in vivo; details: i.p., Table 15
Where a name gives a salt, the structure may show the parent alone.
Reported MICE MES ED50 is given for each of the following molecules.

- molecule: "NC(=O)CNC1CCCc2ccccc21 (racemic) [Example 4, (rac)-N-(2-Acetamido)-1-aminotetralin]"
  relationOperator: "<"
  MICE MES ED50 (mg/kg): 100
- molecule: "NC(=O)CNC1CCc2ccc(F)cc21 (racemic) [Example 5]"
  relationOperator: "="
  MICE MES ED50 (mg/kg): 58
- molecule: "Cl.NC(=O)CN[C@@H]1CCc2ccccc21 [D, (R)-Indanylglycinamide-HCl salt]"
  relationOperator: "="
  MICE MES ED50 (mg/kg): 83
- molecule: "NC(=O)CNC1CCc2ccccc21 (racemic) [Example 3, (rac)-N-(2-Acetamido)-1-aminoindan.HCl]"
  relationOperator: "<"
  MICE MES ED50 (mg/kg): 100
